experimental target: T1, KW27-13 (human CD39 mutant, C-terminal EGFP) (human, UniProt P49961 1-510)
T1 construct: expressed on HEK293F cells; not shown: C-terminal EGFP fusion (vector pCMV3-GFPSpark)
T1 chain: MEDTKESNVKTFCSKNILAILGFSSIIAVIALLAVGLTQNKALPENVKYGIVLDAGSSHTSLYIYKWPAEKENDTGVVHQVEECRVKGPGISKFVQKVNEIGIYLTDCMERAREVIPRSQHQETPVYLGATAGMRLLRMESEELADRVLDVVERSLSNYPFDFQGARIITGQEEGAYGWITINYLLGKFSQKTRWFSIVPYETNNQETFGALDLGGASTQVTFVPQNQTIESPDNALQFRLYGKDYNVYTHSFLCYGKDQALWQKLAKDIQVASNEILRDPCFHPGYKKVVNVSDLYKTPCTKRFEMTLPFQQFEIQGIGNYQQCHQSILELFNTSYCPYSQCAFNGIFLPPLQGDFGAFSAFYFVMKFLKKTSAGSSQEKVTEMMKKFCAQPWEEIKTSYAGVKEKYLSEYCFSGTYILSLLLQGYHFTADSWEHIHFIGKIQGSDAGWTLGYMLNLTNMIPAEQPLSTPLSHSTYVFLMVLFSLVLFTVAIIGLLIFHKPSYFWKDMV
test: FACS, mutant-EGFP on HEK293F cells

binder	binding result
hu23.H5L5 (antibody, V domains shown, humanized c23) VH: QVQLVQSGAEVKKPGASVKVSCKASGYNLKDTFLHWVRQAPGQGLEWMGRIDPANGNIKYDPKFQGRVTITADTSANTAYMELISLRSEDTAVYYCANSPYYYGSGYRIFDVWGQGTTVTVSS VL: QIVLTQSPATLSLSPGERATLSCSAFSSVNYMHWYQQKPGQAPRLLIYTTSNLASGIPTRFSGSGSGTSYTLTISSLEPEDFAVYYCQQRSTYPFTFGQGTKLEIK	binds
